compounds and their reported viscosity
- experimentalConditions: 373.15 K; 1600 kPa; Liquid; Falling or rolling sphere viscometry
± gives the expanded uncertainty stated by the source.
measure: viscosity

INSERT INTO measurements (smilesnotation, recordedmeasurement) VALUES
  ('CC(=O)O', '0.486 ± 0.005 mPa·s'),
  ('Cc1ccc(C)cc1', '0.3 ± 0.003 mPa·s'),
  ('CCCCCCCCCC', '0.3818 ± 0.0041 mPa·s'),
  ('Cc1ccccc1', '0.2742 ± 0.0029 mPa·s');

---

- experimentalConditions: 373.15 K; 2400 kPa; Liquid; Falling or rolling sphere viscometry
measure: viscosity (mPa·s)

INSERT INTO measurements (smilesnotation, measure, recordedmeasurement) VALUES
  ('CCCCCCCCCC', 'viscosity', 0.3851),
  ('CC(=O)O', 'viscosity', 0.494),
  ('Cc1ccc(C)cc1', 'viscosity', 0.303),
  ('Cc1ccccc1', 'viscosity', 0.278);
